biological target: Biotin-Aβ(1-42) (Homo sapiens); construct: Biotin-Aβ(1-42) (AnaSpec) at 0.2 mg/ml in hexafluoroisopropanol (HFIP); purchased AnaSpec; assay: Biotin-Aβ(1-42) oligomeric assay; assay type: biochemical; details: inhibition of oligomer formation at 25 uM, 30 minutes; higher = more inhibition
Sequence (P05067 672-713 limits assumed): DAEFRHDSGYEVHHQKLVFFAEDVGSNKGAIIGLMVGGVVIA
Items are presented alongside their recorded inhibition at 25 µM.
Please give a number only; it is taken to be in %.

• OC(c1cccc(-c2cc(N3CCC[C@H]3CN3CCCC3)c3nonc3c2)c1)C(F)(F)F (some centres unmarked) [TRV-1452] = 76
• OC(c1cccc(-c2cc(N3CC(CN4CCOCC4)C3)c3nonc3c2)c1)C(F)(F)F (centres unmarked) [TRV-1455] = 29
• CN(Cc1ccc(F)cc1)c1cc(-c2cccc(C(=O)N3CCCC3)c2)cc2nonc12 [TRV-1460] = 10
• CN(C)CCCN(C)c1cc(-c2cccc(C(O)C(F)(F)F)c2)cc2nonc12 (centres unmarked) [TRV-1465] = 69
• OC[C@@H]1CCCN1c1cc(-c2cccc(C(O)C(F)(F)F)c2)cc2nonc12 (some centres unmarked) [TRV-1450] = 32

Bench note: what inhibition at 25 µM did COC(C)C1CN(c2cc(-c3cccc(C(O)C(F)(F)F)c3)cc3nonc23)C1 (centres unmarked) [TRV-1461] show?
-28

Param item: OC(c1cccc(-c2cc(N3CC(N4CCOCC4)C3)c3nonc3c2)c1)C(F)(F)F (centres unmarked) [TRV-1462]
23

Item: CC(C)(O)C1CN(c2cc(-c3cccc(C(O)C(F)(F)F)c3)cc3nonc23)C1 (centres unmarked) [TRV-1435]
29

The reported numbers originate from patent US9328078B2.
